The measurements presented in this section are drawn from paper PMC6599079.

Target entity: H-2b MHC class I (allele not given)
Assay: Classical competition assay of peptide binding to purified MHC; restricting allele not printed in the epitope label of this file
Parameters: species or system mouse
Assay context: epitope label without allele; file clean_file9_IC50; unit inferred
pIC50: −log10 of the molar value.
Recorded metric: pIC50

>>> val("HA-41-49 (VTVTHSVNL)")
6.06

----------
The reader will find reported pIC50 values listed item by item below.
Target entity: H-2K^b (Mus musculus, UniProt P01901)
Sequence (P01901 22-369): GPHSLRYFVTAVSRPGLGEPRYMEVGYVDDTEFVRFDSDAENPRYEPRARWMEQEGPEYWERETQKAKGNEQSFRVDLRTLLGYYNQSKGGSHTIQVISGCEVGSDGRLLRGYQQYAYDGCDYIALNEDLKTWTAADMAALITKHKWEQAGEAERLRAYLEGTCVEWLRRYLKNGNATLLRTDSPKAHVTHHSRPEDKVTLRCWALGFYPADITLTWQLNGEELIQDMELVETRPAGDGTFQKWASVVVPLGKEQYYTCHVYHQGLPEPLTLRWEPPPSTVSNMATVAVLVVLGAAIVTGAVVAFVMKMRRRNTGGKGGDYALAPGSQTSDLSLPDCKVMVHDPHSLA
Sequence (P01887 21-119 partner): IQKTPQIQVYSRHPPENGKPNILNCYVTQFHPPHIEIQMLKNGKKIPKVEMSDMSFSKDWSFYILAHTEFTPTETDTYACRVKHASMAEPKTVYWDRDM
Assay: biochemical
Assay type: binding
Assay context: Measured IC50 of each peptide, H-2K^b
pIC50: −log10 of the molar value. Ends that are not written are not given here.
Recorded metric: pIC50

>>> val("VYIEVLHL [PB2_227–234]")
8.55
>>> val("NGITNKVNTVI [HA389–399]")
4.66
>>> val("IGRFYIQM [NP36–43]")
8.72
>>> val("SSLPYQNI [HA304–311]")
8.33
>>> val("SGPDNGAVAVL [NA181–191]")
6.23
>>> val("LSLRNPILV [PB1-F2_62–70]")
4.91
>>> val("SGPDNGAVAV [NA181–190]")
6.58
>>> val("YQNIHPVTI [HA308–316]")
5.94
>>> val("AGLKNDLLENL [M1_227–237]")
5.48
>>> val("SSLENFRAYV [PA224–233]")
7.42
>>> val("MGLIYNRM [M1_128–135]")
7.03
>>> val("RTFSFQLI [NS2_114–121]")
8.33
>>> val("SSYRRPVGI [PB1_703–711]")
8.72
>>> val("VTVTHSVNL [HA41–49]")
8.10
>>> val("SFQDILLRM [NS2_8–16]")
6.73
>>> val("KNMEYDAV [PB1_653–660]")
6.81

----------
Target entity: H-2D^b (Mus musculus)
Sequence (P01899 25-362): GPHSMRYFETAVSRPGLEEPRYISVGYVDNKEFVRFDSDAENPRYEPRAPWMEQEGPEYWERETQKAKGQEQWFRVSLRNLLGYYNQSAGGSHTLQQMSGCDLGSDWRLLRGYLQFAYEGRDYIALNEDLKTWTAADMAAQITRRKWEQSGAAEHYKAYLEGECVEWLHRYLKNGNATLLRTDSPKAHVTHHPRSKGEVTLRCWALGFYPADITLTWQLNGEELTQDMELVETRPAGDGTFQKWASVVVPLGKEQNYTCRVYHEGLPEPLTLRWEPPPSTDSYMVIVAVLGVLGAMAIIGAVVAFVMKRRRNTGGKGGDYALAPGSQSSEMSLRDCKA
Sequence (P01887 21-119 partner): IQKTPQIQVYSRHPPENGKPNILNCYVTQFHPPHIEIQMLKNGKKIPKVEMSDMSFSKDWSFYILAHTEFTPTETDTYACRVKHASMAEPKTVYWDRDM
Assay: biochemical
Type: binding
Assay context: Measured IC50 of each peptide, H-2D^b
Ends that are not written are not given here.
Recorded metric: log10(IC50) (log10 of the value in nM)

>>> val("VTVTHSVNL [HA41–49]")
2.94
>>> val("SSLENFRAYV [PA224–233]")
-0.80
>>> val("SFQDILLRM [NS2_8–16]")
4.03
>>> val("NGITNKVNTVI [HA389–399]")
2.07
>>> val("IGRFYIQM [NP36–43]")
3.52
>>> val("AGLKNDLLENL [M1_227–237]")
3.72
>>> val("YQNIHPVTI [HA308–316]")
3.29
>>> val("SSYRRPVGI [PB1_703–711]")
4.46
>>> val("SGPDNGAVAVL [NA181–191]")
1.81
>>> val("VYIEVLHL [PB2_227–234]")
4.32
>>> val("SQLKNNAKEI [HA467–476]")
2.24
>>> val("SGPDNGAVAV [NA181–190]")
1.81
>>> val("LSLRNPILV [PB1-F2_62–70]")
1.26

----------
Target entity: H-2D^b (Mus musculus)
Assay: biochemical
Type: binding
Assay context: epitopes labelled Db; file clean_file9_IC50; unit inferred; read-out: IC50
pIC50: −log10 of the molar value. Ends that are not written are not given here.
Recorded metric: pIC50

>>> val("SSLENFRAYV [PA-224-233Db]")
9.81
